# Test system: SNB-19 CNS
# protocol_description: NCI tumour cell line growth inhibition, 48 h
quantity_kind: TGI

- C[C@@H](CS[As](C)C)C(=O)N1CCC[C@H]1C(=O)O: 31.2 µM

Requested read-out: TGI. Entry: COC(=O)[C@@H](NC(=O)[C@H](N)Cc1ccc(N(CCCl)CCCl)cc1)C(C)C > 100 µM

Requested read-out: TGI. Entry: COc1cc2c(c(OC)c1OC)C(=O)[C@@H](O)[C@H]2NC(N)=O > 100 µM

Tell me the measured TGI of O=c1[nH]c2ccc(Cl)cc2o1 , please. > 100 µM

Requested read-out: TGI. Entry: NC(=O)C(=O)C1C(=O)N(c2ccccc2)N=C1N (configuration not stated) > 100 µM

// TGI lookup, key: COc1cc([C@@H]2OC(=O)C3C2C(=O)O[C@H]3c2ccc(O)c(OC)c2)ccc1O (some centres not stated) > 100 µM

Reported TGI for CC(=O)c1c2c(cc3c1CC1(Cc4cc5c(cc4C1)C(=O)CCC5)C3)CCCC2 (configuration not stated) : what is it? 80.9 µM

I would be grateful if you could share the reported TGI for COc1ccc(CCc2ccc3c(c2)OCO3)cc1 . > 100 µM

Please report the recorded TGI for O=C1C(Cl)=C(Cl)C(=O)N1c1ccc(F)cc1 . > 73.2 µM

Look up TGI for this molecule: COc1cc2c3c(n([C@@H]4CCOC4)c(=O)c2cc1OC)-c1cc2c(cc1C3=O)OCO2 > 100 µM

Can you look up the measured TGI of CC(C)(C)C1=CC(=C2C=Cc3cc(O)ccc3O2)C=C(C(C)(C)C)C1=O for me? 3.3 µM

Any idea what its TGI is? The molecule is CCCCCCCCCCCCCCCCCCOCC(C[N+]1(C)CCC(O)CC1)OCC (configuration not stated) 28.3 µM

###

# Test system: HL-60(TB) leukemia
# protocol_description: NCI tumour cell line growth inhibition, 48 h
Catalogue of TGI readings, one per entry.

As a guide, the following entries are already answered.
* CCCCSc1nc(N)c2cn[nH]c2n1 | > 100 µM
* C=CCC(N[C@H](CO)c1ccccc1)c1ccccn1 (stereo partly drawn) | > 100 µM

Now for the compound whose TGI we want.
Which TGI is reported with HL-60(TB) leukemia for this entry: COc1c(B(O)O)cccc1-c1nc2ccc3[nH]ncc3c2c2c1CCCC2 ? 4.87 µM

###

# GI50 values compiled below
# System: SW-620 colon
# protocol_description: NCI tumour cell line growth inhibition, 48 h

Use these answered entries as a reference point.
- Cc1c(Cl)cccc1NC(=O)c1sc2nc3c(cc2c1N)C(=O)CCC3: 48.4 nM
- [Cl][Hg][c]1ccc2ccccc2c1: 1770 nM
- COc1c(B(O)O)cccc1-c1nc2ccc3[nH]ncc3c2c2c1CCCC2: 1170 nM

// next entry
I'd like to know its GI50. The compound in question is COc1cc2c3c(n([C@@H]4CCOC4)c(=O)c2cc1OC)-c1cc2c(cc1C3=O)OCO2 < 10 nM

###

# Test system: RXF 393 renal
# protocol_description: NCI tumour cell line growth inhibition, 48 h
log10(TGI): recorded values
// stored as log10 of TGI expressed in µM

Completed entries (count: 4):
• [Cl][Hg][c]1ccc2ccccc2c1 = 0.48
• CCN(CC)S(=O)(=O)c1cccc(-c2ccc3c(NC(=O)C4CC4)n[nH]c3c2)c1 = 0.71
• CC1CC(=NC2CCCCC2)Nc2ccccc2N1Cc1ccccc1 (stereo not given) = 1.02
• O=C1C(Cl)=C(Cl)C(=O)N1c1ccc(F)cc1 = 1.59

Please examine the following record next.
Name the reported log10(TGI) value associated with the molecule CC(=O)O[C@@H]1C2=C(C)C3(CC3)[C@@](C)(O)C(=O)C2=C[C@@]1(C)CO -0.18
